This collection of values is drawn from patent US5712273A.

- Tested target: NK1-receptor (substance P-receptor) (Homo sapiens, UniProt P25103)
- Construct: cloned NK1 -receptors on human lymphoblastoma cells (IM-9); endogenous in cells; host or cells: IM-9 human lymphoblastoma cells
- Sequence (P25103 whole entry): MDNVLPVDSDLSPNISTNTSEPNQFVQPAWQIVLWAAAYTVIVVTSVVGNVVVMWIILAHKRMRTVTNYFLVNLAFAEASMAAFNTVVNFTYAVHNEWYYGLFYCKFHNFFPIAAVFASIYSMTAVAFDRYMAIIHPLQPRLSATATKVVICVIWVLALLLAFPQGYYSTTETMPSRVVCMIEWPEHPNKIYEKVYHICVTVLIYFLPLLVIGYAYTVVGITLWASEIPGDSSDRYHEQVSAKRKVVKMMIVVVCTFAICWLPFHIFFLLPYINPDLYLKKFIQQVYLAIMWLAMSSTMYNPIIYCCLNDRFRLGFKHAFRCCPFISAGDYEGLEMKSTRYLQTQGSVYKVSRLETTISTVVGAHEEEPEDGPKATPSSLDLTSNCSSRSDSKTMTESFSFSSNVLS
- Experiment description: NK1-receptor (substance P-receptor) affinity: displacement of 125I-labelled substance P on IM-9 cells
- Assay type: binding
- Run conditions: cloned NK1-receptors on human lymphoblastoma cells (IM-9); displacement of 125I-labelled substance P; read-out: NK1 IC50
Parameter measured: IC50 (nM)

{"columns": ["Compound", "IC50 [nM]"],
 "data": [
  ["CN(Cc1ccccc1)C(=O)[C@H](Cc1ccc2ccccc2c1)NC(=O)[C@@H]1C[C@@H](O)CN1C(=O)C1C(=O)C2(C)CCC1C2(C)C (stereo partly shown)", 0.5],
  ["Cc1ccccc1N1CCN(C(=O)[C@H](Cc2ccc3ccccc3c2)NC(=O)[C@@H]2C[C@@H](O)CN2C(=O)C2C(=O)C3(C)CCC2C3(C)C)CC1 (stereo partly shown)", 3],
  ["COc1ccc(N2CCN(C(=O)[C@H](Cc3ccc4ccccc4c3)NC(=O)[C@@H]3C[C@@H](O)CN3C(=O)C3C(=O)C4(C)CCC3C4(C)C)CC2)c(C)c1 (stereo partly shown)", 11],
  ["CC12CCC(C(C(=O)N3C[C@H](O)C[C@H]3C(=O)N[C@@H](Cc3ccc4ccccc4c3)C(=O)N3CCN(c4ccccc4[N+](=O)[O-])CC3)C1=O)C2(C)C (stereo partly shown)", 3.2],
  ["CC(C)c1ccccc1N1CCN(C(=O)[C@H](Cc2ccc3ccccc3c2)NC(=O)[C@@H]2C[C@@H](O)CN2C(=O)C2C(=O)C3(C)CCC2C3(C)C)CC1 (stereo partly shown)", 5]
]}

[1] CC12CCC(C(C(=O)N3C[C@H](O)C[C@H]3C(=O)N[C@@H](Cc3c[nH]c4ccccc34)C(=O)N3CCN(c4ccccc4C#N)CC3)C1=O)C2(C)C (stereo partly shown)
[2] CN(Cc1ccccc1Cl)C(=O)[C@H](Cc1c[nH]c2ccccc12)NC(=O)[C@@H]1C[C@@H](O)CN1C(=O)C1C(=O)C2(C)CCC1C2(C)C (stereo partly shown)
Sorting ascending by IC50, which comes first: 1 or 2 ? Label of pick, please.
2

----------
- Tested target: NK1-receptor (substance P-receptor) (Homo sapiens, UniProt P25103)
- Construct: cloned NK1 -receptors on human lymphoblastoma cells (IM-9); endogenous in cells; host or cells: IM-9 human lymphoblastoma cells
- Experiment description: NK1-receptor (substance P-receptor) affinity: displacement of 125I-labelled substance P on IM-9 cells
- Type: binding
- Run conditions: cloned NK1-receptors on human lymphoblastoma cells (IM-9); displacement of 125I-labelled substance P; read-out: NK1 IC50
Parameter measured: IC50 (nM)

Some compounds with known IC50 results, for comparison:
{"columns": ["Compound", "Unit of measure", "Reported result"],
 "data": [
  ["CC12CCC(C(C(=O)N3C[C@H](O)C[C@H]3C(=O)N[C@@H](Cc3ccc4ccccc4c3)C(=O)N3CCN(C(c4ccc(F)cc4)c4ccc(F)cc4)CC3)C1=O)C2(C)C (stereo partly drawn)", "nM", 200],
  ["COc1ccccc1N1CCN(C(=O)[C@H](Cc2ccc3ccccc3c2)NC(=O)[C@@H]2C[C@@H](O)CN2C(=O)C2C3CC4C(C3=O)C42)CC1 (stereo partly drawn)", "nM", 7],
  ["COc1ccccc1N1CCN(C(=O)[C@H](Cc2ccc3ccccc3c2)NC(=O)[C@@H]2C[C@@H](O)CN2C(=O)C2C(=O)C3(C)CCC2C3(C)C)CC1 (single isomer, unassigned)", "nM", 3.1],
  ["COc1ccccc1N1CCN(C(=O)[C@H](Cc2ccc3ccccc3c2)NC(=O)[C@@H]2C[C@@H](O)CN2C(=O)C2C3CCC(C)(C2O)C3(C)C)CC1 (stereo partly drawn)", "nM", 8],
  ["COc1ccccc1N1CCN(C(=O)[C@H](Cc2ccc3ccccc3c2)NC(=O)[C@@H]2C[C@@H](O)CN2C(=O)C23CCC(C)(C(=O)O2)C3(C)C)CC1 (stereo partly drawn)", "nM", 3.3]
]}

[A] COc1ccccc1N1CCN(C(=O)[C@H](Cc2ccc3ccccc3c2)NC(=O)[C@@H]2C[C@@H](O)CN2C(=O)C2CC3CCC2(OC)CC3)CC1 (stereo partly drawn)
[B] CSc1ccccc1N1CCN(C(=O)[C@H](Cc2ccc3ccccc3c2)NC(=O)[C@@H]2C[C@@H](O)CN2C(=O)C2C(=O)C3(C)CCC2C3(C)C)CC1 (stereo partly drawn)
Sorting ascending by IC50, which comes first: A or B ? Label of pick, please.
B

[A] COc1ccccc1N1CCN(C(=O)[C@H](Cc2ccc3ccccc3c2)NC(=O)[C@@H]2C[C@@H](O)CN2C(=O)C2CCCCC2=O)CC1 (stereo partly drawn)
[B] CC12CCC(C(C(=O)N3C[C@H](O)C[C@H]3C(=O)N[C@@H](Cc3ccc4ccccc4c3)C(=O)N3CCN(c4ccccc4C#N)CC3)C1=O)C2(C)C (stereo partly drawn)
Lab notebook, comparison: A versus B , higher IC50 goes to which? Label of pick, please.
A
(A: 18 nM, B: 0.7 nM)
